Read-out: NAD(P)H dehydrogenase [quinone] 1 (NQO1), NQO1 (gene 1728)
Experiment: LTEA_HepaRG_NQO1: Life Technologies and Expression Analysis (LTEA) Assay for NAD(P)H dehydrogenase [quinone] 1 (NQO1) using HepaRG (AID 2283526)
Details: mRNA level, 48 h; actives raise or lower the signal
The source made the active and inactive calls. Rule for the calls: active = hit-call score of the fitted dose curve at least 0.9, where 1 is the maximum; inactive = score below 0.9.
Choose one outcome from this list and give only that: y = active, n = inactive

Completed entries (count: 5):
Nc1ccc(Oc2ccc(N)cc2)cc1 :: n
CCC(C)c1ccc(O)cc1 (stereo not drawn) :: n
O=C(Oc1ccc(Br)cc1)N1CCN2CCC1CC2 :: n
c1ccc2c(c1)oc1ccccc12 :: n
N#CC(Br)(Br)C(N)=O :: n

Any idea what this test logged for Nc1ccc(Cc2ccc(N)cc2)cc1 ?
n

Any idea what this test logged for CN(C)c1ccccc1 ?
n

So what was the verdict on CCCCCCCCn1sccc1=O in this test?
n

Recorded test call requested for N#CC(Br)Br
n

Could you please tell me the result logged for Cc1ccc(N=C=O)cc1N=C=O in this assay?
y

Field: outcome | Entry: Cc1ccc([N+](=O)[O-])cc1
n

How was CCCCOC(=O)c1ccccc1C(=O)OCc1ccccc1 classified in this test?
n

Which outcome was assigned to O=C1CCCO1 in this test?
y

Entry source: PubChem BioAssay (EPA / NIEHS)
